Molecular target: human recombinant p38α protein kinase (Homo sapiens, UniProt Q16539)
Sequence (Q16539 whole entry): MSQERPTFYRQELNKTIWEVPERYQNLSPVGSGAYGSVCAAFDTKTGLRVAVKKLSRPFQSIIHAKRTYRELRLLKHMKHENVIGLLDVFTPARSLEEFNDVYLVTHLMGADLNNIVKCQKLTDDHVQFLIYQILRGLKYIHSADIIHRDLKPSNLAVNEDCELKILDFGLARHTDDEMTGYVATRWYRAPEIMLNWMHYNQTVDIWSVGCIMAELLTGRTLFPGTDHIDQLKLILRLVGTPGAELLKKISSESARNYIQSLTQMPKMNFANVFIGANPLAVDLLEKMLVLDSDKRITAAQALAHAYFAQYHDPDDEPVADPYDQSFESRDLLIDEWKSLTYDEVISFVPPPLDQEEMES
Assay: Human p38α MAP kinase inhibition assay (cell-free, phosphorylation of myelin basic protein)
observed_property: IC50

# molecule, target_or_test_system, observed
data = [
    ("CCC(C)(C)C(=O)O[C@H]1C[C@@H](C)C=C2C=C[C@H](C)[C@H](CC[C@@H]3C[C@@H](O)CC(=O)O3)[C@H]21 [Simvastatin sodium]", "human recombinant p38α protein kinase (Homo sapiens, UniProt Q16539)", "> 100 µM"),
]
